Values were extracted from patent EP4800018A1.

- METHOD NOTES: PK Study of Compounds in Rats
- Assay type: in vivo, Male SD rats
- MEASUREMENT CONDITIONS: male, SD, rat, whole blood, PO 10 mg/kg (n=3), mean, read-out: AUC0-t
MEASUREMENT TYPE: AUC(0-t) (ng·h/mL)
Express it in ng·h/mL; write the number only.

## Input Recorded AUC(0-t) for CC1OCCCn2c(c3c4cc(ccc42)-c2csc(n2)CC(NC(=O)C2C4COCC42)C(=O)N2NC(C(=O)OCC(C)(C)C3)C3CC2C3)-c2cc(N3CCN(C)CC3)cnc21 (stereo not drawn) , please?
## Output 5350

## Input Recorded AUC(0-t) for CC1OCCCn2c(c3c4cc(ccc42)-c2csc(n2)CC(NC(=O)C2C(C)C2C)C(=O)N2NC(C(=O)OCC(C)(C)C3)C3CC2C3)-c2cc(N3CCN(C)CC3)cnc21 (stereo not drawn) , please?
## Output 14600

## Input Recorded AUC(0-t) for CC1OCCCn2c(c3c4cc(ccc42)-c2csc(n2)CC(NC(=O)C2C(C)C2C)C(=O)N2NC(C(=O)OCC(C)(C)C3)C3CC2C3)-c2cc(N3CCN(C4COC4)CC3)cnc21 (stereo not drawn) , please?
## Output 22500
